All figures here come from the supplement of paper PMC10567573.

# protein stability index per entry
B1: FCHO1 (parent)
chain: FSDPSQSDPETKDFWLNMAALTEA

Variants of: B1
test_description: protein stability index of a GFP-peptide fusion (GPS, HEK-293T) (PSI 1-6); higher = more stable;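 further: lentivirally expressed fusions sorted by FACS into six bins by GFP to DsRed ratio, PSI derived from sequencing read proportions per bin multiplied by bin number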
condition_context: c terminus: a fixed tail appended
parameter: protein stability index

1) FSDPSSSDPETKDFWLNMAALTEA [Q6S] | 2.66
2) FSDPSQSDPETKDFWLNMARLTEA [A20R] | 2.81
3) FSDPSQSDPETKDFWLNMAALTEY [A24Y] | 2.29
4) FSDPSQSDPETKDFWLNMAKLTEA [A20K] | 2.63
5) FYDPSQSDPETKDFWLNMAALTEA [S2Y] | 3.28
6) FSDPSQSDPETKDFWLSMAALTEA [N17S] | 2.49
7) FSDPSQSNPETKDFWLNMAALTEA [D8N] | 1.95
8) FSDPSQSTPETKDFWLNMAALTEA [D8T] | 2.81
9) FSDPSQSDPETHDFWLNMAALTEA [K12H] | 3.2
10) FSDHSQSDPETKDFWLNMAALTEA [P4H] | 2.16
11) FSDPSQSDPEPKDFWLNMAALTEA [T11P] | 3.38
12) FCDPSQSDPETKDFWLNMAALTEA [S2C] | 1.69
13) FSDPSQSDPETKDFWLNMAALFEA [T22F] | 3.23
14) FSDPSQSDPETKDFWLPMAALTEA [N17P] | 1.94
15) FSDPSQSDPETKDQWLNMAALTEA [F14Q] | 4.75
16) FSDPSQSDPETKDFWLNMAMLTEA [A20M] | 2.85
17) FSDPSQLDPETKDFWLNMAALTEA [S7L] | 2.65
18) FSDPSQSDPETKDFWLNMAALKEA [T22K] | 2.61
19) FSLPSQSDPETKDFWLNMAALTEA [D3L] | 1.74
20) FSDPSQSDPTTKDFWLNMAALTEA [E10T] | 2.12
21) FSDPSQSDPETKDFWLNMAALTEQ [A24Q] | 3.27
22) FSDPSQSDPETKDYWLNMAALTEA [F14Y] | 3.98
